SYSTEM_NAME: ClpB NBD1-M (Thermus thermophilus, UniProt Q9RA63, R323A)
Construct: expressed in E. coli BL21 (DE3) RIL; monomer/dimer equilibrium for the arginine mutants
Sequence (Q9RA63 141-534 R323A): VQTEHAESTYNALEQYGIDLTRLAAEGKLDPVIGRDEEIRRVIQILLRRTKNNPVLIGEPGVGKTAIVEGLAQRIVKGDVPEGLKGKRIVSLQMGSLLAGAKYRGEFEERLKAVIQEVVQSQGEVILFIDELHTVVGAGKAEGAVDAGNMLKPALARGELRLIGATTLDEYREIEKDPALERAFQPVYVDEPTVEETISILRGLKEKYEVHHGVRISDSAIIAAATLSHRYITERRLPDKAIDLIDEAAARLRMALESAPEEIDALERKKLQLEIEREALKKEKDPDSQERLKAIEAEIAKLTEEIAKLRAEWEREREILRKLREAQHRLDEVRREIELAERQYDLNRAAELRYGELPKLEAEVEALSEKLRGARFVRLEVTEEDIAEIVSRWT
EXPERIMENT: fluorescence displacement titration against MANT-dADP
Assay type: binding
CONDITIONS: read-out: KD(ATP); 2 µM protein; 50 mM Tris/HCl pH 7.5, 50 mM KCl, 5 mM MgCl2, 2 mM EDTA, 25 °C; ATP-regenerating system (phosphoenolpyruvate, pyruvate kinase)
RECORDED_ENDPOINT: Kd (µM)
Respond with the bare value in µM.

Output measured Kd for this item: Nc1ncnc2c1ncn2[C@@H]1O[C@H](COP(=O)(O)OP(=O)(O)OP(=O)(O)O)[C@@H](O)[C@H]1O 1040

* * *

SYSTEM_NAME: ClpB NBD1-M (Thermus thermophilus, UniProt Q9RA63, R322A/R323A)
Construct: expressed in E. coli BL21 (DE3) RIL; monomer/dimer equilibrium for the arginine mutants
Sequence (Q9RA63 141-534 R322A/R323A): as the sequence (Q9RA63 141-534 R323A) above, with R182A counted along it
EXPERIMENT: stopped-flow FRET kinetics (koff/kon)
Assay type: binding
RECORDED_ENDPOINT: pKd
Please report pKd as the negative decimal logarithm of the molar concentration, giving only the number.

Output measured pKd for this item: CNc1ccccc1C(=O)O[C@H]1C[C@H](n2cnc3c(N)ncnc32)O[C@@H]1COP(=O)(O)OP(=O)(O)O [MANT-dADP] 5.16

* * *

SYSTEM_NAME: ClpB NBD1-M dimer with P221C/M394C disulfide crosslink (Thermus thermophilus, UniProt Q9RA63, P221C/M394C)
Construct: NBD1-M (residues 141-534) covalent dimer linked by intermolecular disulfide between P221C of one subunit and M394C of the other; expressed in E. coli BL21 (DE3) RIL; one cross-linked and one free site; associates to tetramers with ATP
Sequence (Q9RA63 141-534 M394C): as the sequence (Q9RA63 141-534 R323A) above, with A183R, M254C counted along it
Sequence (Q9RA63 141-534 P221C): as the sequence (Q9RA63 141-534 R323A) above, with P81C, A183R counted along it
EXPERIMENT: fluorescence displacement titration against MANT-dADP
Assay type: binding
CONDITIONS: read-out: KD(ATP); 2 µM protein; 50 mM Tris/HCl pH 7.5, 50 mM KCl, 5 mM MgCl2, 2 mM EDTA, 25 °C; ATP-regenerating system (phosphoenolpyruvate, pyruvate kinase)
RECORDED_ENDPOINT: Kd (µM)
Respond with the bare value in µM.

Output measured Kd for this item: Nc1ncnc2c1ncn2[C@@H]1O[C@H](COP(=O)(O)OP(=O)(O)OP(=O)(O)O)[C@@H](O)[C@H]1O 96

* * *

SYSTEM_NAME: ClpB NBD1-M dimer with P221C/M394C disulfide crosslink (Thermus thermophilus, UniProt Q9RA63, M394C/P221C)
Construct: NBD1-M (residues 141-534) covalent dimer linked by intermolecular disulfide between P221C of one subunit and M394C of the other; one cross-linked and one free site; associates to tetramers with ATP
EXPERIMENT: stopped-flow FRET kinetics (koff/kon)
CONDITIONS: read-out: KD "free"
RECORDED_ENDPOINT: pKd
Please report pKd as the negative decimal logarithm of the molar concentration, giving only the number.

Output measured pKd for this item: CNc1ccccc1C(=O)O[C@H]1C[C@H](n2cnc3c(N)ncnc32)O[C@@H]1COP(=O)(O)OP(=O)(O)O 6.17

* * *

SYSTEM_NAME: ClpB NBD1-M (Thermus thermophilus, UniProt Q9RA63, R322A/R323A)
Construct: expressed in E. coli BL21 (DE3) RIL; monomer/dimer equilibrium for the arginine mutants
EXPERIMENT: fluorescence displacement titration against MANT-dADP
Format: binding
CONDITIONS: read-out: KD(ATP); 2 µM protein; 50 mM Tris/HCl pH 7.5, 50 mM KCl, 5 mM MgCl2, 2 mM EDTA, 25 °C; ATP-regenerating system (phosphoenolpyruvate, pyruvate kinase)
RECORDED_ENDPOINT: Kd (mM)
Respond with the bare value in mM.

Output measured Kd for this item: Nc1ncnc2c1ncn2[C@@H]1O[C@H](COP(=O)(O)OP(=O)(O)OP(=O)(O)O)[C@@H](O)[C@H]1O 2.05
